tested on: 817829-284-R-J1-PDC complex spheroid viability; experiment: Anticancer human tumor 817829-284-R-J1-PDC patient-derived colon adenocarcinoma cell line growth inhibition [POLQ]; settings: second compound 0.316 µM; first compound 0.316 µM; hits give low values;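 note: spheroids exposed to compounds for 7 days; 100% = DMSO vehicle-treated spheroids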
assay-readout: viability, T/C (%)
// return numeric value only (unit: %, not printed)

Example results:
1) COc1ccc([C@@H](O)c2cc(-c3ncnc4cc(N5CCOCC5)ccc34)c(F)cc2Cl)nn1 + COC1C(OC(N)=O)C(O)C(Oc2ccc3c(O)c(NC(=O)c4ccc(O)c(CC=C(C)C)c4)c(=O)oc3c2C)OC1(C)C: 58.4
2) O=C(c1cc(Cc2n[nH]c(=O)c3ccccc23)ccc1F)N1CCN(C(=O)C2CC2)CC1 + Cc1cccc(N(C)C(=O)C2C(O)CCN2c2nc(C)cc(C(F)(F)F)c2C#N)c1: 78.2

Query block: For C=CC(=O)N1CCN(c2nc(=O)n(-c3c(C)ccnc3C(C)C)c3nc(-c4c(O)cccc4F)c(F)cc23)C(C)C1 (stereo not drawn) + COC1C(OC(N)=O)C(O)C(Oc2ccc3c(O)c(NC(=O)c4ccc(O)c(CC=C(C)C)c4)c(=O)oc3c2C)OC1(C)C , what is its reported viability, T/C?
Result block: 104
